- Tested on: Plasmodium falciparum Sir2 (PF13_0152, Sir2A)
- assay: pfSir2 binders on small-molecule microarrays, primary screen, biochemical, small-molecule microarray, 635 nm fluorescence (AID 1098);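 also: score merges spot fluorescence intensity with its signal-to-noise ratio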
- condition.parameters: small-molecule microarray binding, fluorescence 635 nm; higher = more signal
Respond with 1 for composite z-score values of 1 and above, 0 for values below.

[[record]]
compound = "COCCOC(=O)N1C(=O)[C@@]2(c3cc(C#CCC(C(=O)OC)C(=O)OC)ccc31)[C@H](c1ccccc1OCCO)N1[C@H](c3ccccc3)[C@H](c3ccccc3)OC(=O)[C@H]1[C@@H]2C(=O)N1CCc2cc(OC)c(OC)cc2C1"
label = 1

[[record]]
compound = "CC(C)N1C(=O)[C@@]2(c3ccc([N+](=O)[O-])cc3)CC(=O)N(CC34CC5CC(CC(C5)C3)C4)[C@@H]2c2ccc(CO)cc21"
label = 0

[[record]]
compound = "COCCCNC(=O)[C@@]1(CCC(=O)OC(C)(C)C)N=C(c2ccc(OCCCO)cc2)O[C@H]1c1ccccc1CN=[N+]=[N-]"
label = 1

[[record]]
compound = "O=C1OCC=C[C@H]2OC34C=CCN(c5ccc(Cl)cc5)C(=O)[C@H]3N(CCCCCCO)C(=O)[C@@H]4[C@@H]12 (stereo not given in full)"
label = 1

[[record]]
compound = "O=c1cccc(C=Cc2ccccc2)o1"
label = 0

[[record]]
compound = "CCOC(=O)C1=CCC(c2ccc([N+](=O)[O-])cc2)N(S(=O)(=O)c2ccc(C)cc2)C1 (stereo not given)"
label = 0

[[record]]
compound = "[N-]=[N+]=Nc1ccccc1C[C@]1(C(=O)NCCN2CCOCC2)N=C(c2ccc(OCCCO)cc2)O[C@H]1c1ccccc1"
label = 1

[[record]]
compound = "CC(C)C(=C=CC[C@H](O)c1ccccc1OCCO)C[C@H](O)c1ccccn1"
label = 1

[[record]]
compound = "CC(C)=CCCC(C)=CC(O)C1C=CC2C(=O)N(c3ccccc3)C(=O)C2N1Nc1ccccc1 (stereo not given)"
label = 1

[[record]]
compound = "CCCNC(=O)[C@@H]1c2ccccc2C(=O)N(Cc2ccccc2)[C@H]1c1ccc(CO)cc1"
label = 0

[[record]]
compound = "Cc1ccc(S[C@]2(C(=O)NC3CC3)CC(=O)N(Cc3ccccc3)[C@@H]2c2ccc(CO)cc2)cc1"
label = 0

[[record]]
compound = "O=C1O[C@@H](c2ccccc2)[C@@H](c2ccccc2)N2[C@@H](c3ccc(OCCO)cc3)[C@]3(C(=O)Nc4ccccc43)[C@@H](C(=O)Nc3nc4ccccc4s3)[C@H]12"
label = 1

[[record]]
compound = "CCCCCN1CC=CC23O[C@@H]4/C=C\\CCCOC(=O)C4[C@H]2C(=O)N(CCCCCCO)[C@@H]3C1=O (stereo not given in full)"
label = 1

[[record]]
compound = "COc1ccc(C(=O)Nc2cccc(CN3C(=O)[C@@]4(O[C@@H](CCn5cc(CCO)nn5)[C@H]([Si](C)(C)c5ccc(OC)cc5)[C@H]4C)c4ccccc43)c2)cc1"
label = 0

[[record]]
compound = "O=C/C=C/c1ccc(Cl)cc1"
label = 0

